- tested target: T1, human serum albumin (human, UniProt P02768 25-609)
- T1 construct: mature; also called human Alb
- experimental details: ELISA, coated albumin, E. coli supernatant; note: test concentration or dose not given here
# maps each entry to its absorbance at 450 nm

The cases that follow already have their absorbance at 450 nm on record.
>  <binder>
SVA07 (VHH, not shown: large carriers) VHH: QVQLQQSGGGLVQAGDSLRLSCAASGRAFNYYTMGWFRQAPGKEREFVAKIYWDGGSTIYADSVKGRFTISIDNAKNTVYLQMNSLKPEDTAVYYCAADPSFYPFRPKYWGQGTQVTVSS

>  <absorbance at 450 nm>
0.062 A450

$$$$
>  <binder>
SVA06 (VHH) VHH: QVQLQESGGRLVQAEDSLRLSCAASGRTFVSYDMGWFRQAPGKEREFVAAINWRGYTTDYVDSVKGRFFISRDIAKSTVYLQMNNLKPEDTAVYYCAARQMSGSSRYSPPGRVGYDFWGQGTQVTVSS

>  <absorbance at 450 nm>
0.067 A450

$$$$
>  <binder>
SVA16 (VHH, not shown: large carriers) VHH: QVQLQESGGGVVQAGGSLRLSCAASGRTVSSSAMGWFRLAPGKEREFVVGISRSGGSIFYADSVKGRFTISRKNAKNTVDLQMNSLKPEDTAVYYCAAGYRPGYGDYGRVFYREDEYDDWGQGTQVTVSS

>  <absorbance at 450 nm>
0.083 A450

$$$$
>  <binder>
SVA02 (VHH, not shown: large carriers) VHH: QVQLQQSGGGLVQAGGSLRLSCAASGRFFSRQVMGWFRQAPGKDREFVGVISWDNGVTFYSDSVKGRFTMSREIAKKTVHLQMNSLKPEDTAVYYCAAGNALHSRYYSPSKYDYWGPGTQVTVSS

>  <absorbance at 450 nm>
0.065 A450

$$$$

Request: Return reported absorbance at 450 nm; argument: SVA04 (VHH, not shown: large carriers) VHH: QVQLQQSGGGLVQAGGSLRLACAASGRTLSSYVMGWFRQAPGKEREFVAAISWSGGSTYYADSVKGRFTISRDNAKNTVYLQMNSLKPEDTAVYYCAATLRGSNRYYSGRVYDYWGQGTQVTVSS
Result: 0.085 A450
